Let's look at some binders and their measured Bottom (RLU).
Biological target: T1, TIGIT on TIGIT-over expressing NFAT-Luc/Jurkat effector cells (GenScript reporter cell line) (UniProt Q495A1 22-244, limits assumed)
T1 sequence (looked up): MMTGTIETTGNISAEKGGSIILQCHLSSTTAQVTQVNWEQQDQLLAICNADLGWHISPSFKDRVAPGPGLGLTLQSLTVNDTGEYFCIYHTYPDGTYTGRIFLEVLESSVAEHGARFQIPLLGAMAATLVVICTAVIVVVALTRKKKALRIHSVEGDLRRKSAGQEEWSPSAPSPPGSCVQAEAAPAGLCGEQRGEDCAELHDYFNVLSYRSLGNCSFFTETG
Assay: cell-based or functional assay
Number in RLU, nothing else.

huTIGIT-6-3 (antibody, human IgG1, kappa, V domains shown, Humanized IgG; also called 6VH6.M6 + 6VL1.M1) VH: QVQLVQSGAEVKKPGASVKVSCKASGYTFTENAMHWVRQAPGQRLEWIGGINPNQGGTSYSQKFQGRATLTVDTSASTAYMELSSLRSEDTAVYYCTRSSYYRYDLDYWGQGTTVTVSS VL: DIQMTQSPSSLSASVGDRVTITCQASQDIKTALAWYQQKPGKAPKLLIYSASYRYTGVPSRFSGSGSGTDFTFTISSLQPEDIATYYCHQHYTTPWTFGGGTKLEIKR: 49400

Moving on to another binder below.
Task item: Quick one: Bottom (RLU) for TIGIT-19 chimeric antibody (antibody, human IgG1, kappa, V domains shown, also called 19VH + 19VL) VH: QVQLQQPGPELVKPGTSVMLSCKASGYAFSRYSMYWVKQSHGKSLEWIAFIDPYNGGSTYNQRFRGKATLTVDKSSSTAYMHLNTLTSDDSAVYYCARGGDYGWYLGVWGAGTTVTVSS VL: DIQMTQSPASLSASVGETVTITCRPSENIYTYLSWYQQKRGKSPQLLVYNAKTLPENVPSRFSGSGSGTQFSLKIDSLQPEDFGNYYCQHHYGNPLTFGAGTKLELKR ?
Reply: 47600
